# credit: paper PMC5814585

- Target or system: actin.MassS1 (Bos taurus)
- Construct: from tissue; host or cells: bovine masseter muscle (myosin); rabbit muscle (actin)
- Assay method text: ADP dissociation constant in the presence of phosphate (KADP+Pi) and calculated KPi app, masseter
- Assay type: binding, bovine
- Condition notes: Masseter S1, pH 7.0, 10°C, 15 mM Pi
Property: Kd (µM)
Answers are plain numbers, in µM.

Any idea what Kd came out for Nc1ncnc2c1ncn2[C@@H]1O[C@H](COP(=O)(O)OP(=O)(O)O)[C@@H](O)[C@H]1O [ADP] on actin.MassS1 (Bos taurus)?
22.5

###

- Target or system: actin.PsoS1
- Assay method text: ADP dissociation constant (KADP) by competitive inhibition of ATP-induced dissociation, psoas
- Format: binding, rabbit
- Condition notes: Psoas S1, pH 6.2, 20°C; read-out: KADP
- Description: In a similar process, ADP dissociation constant (KADP), which defines ADP affinity for actin.S1, was measured by adding to the mixture ADP as a competitive inhibitor of ATP binding. […] This approach assumes that ADP is in rapid equilibrium with the actin.S1 complex on the time scale of the ATP-induced dissociation reaction. This was ensured by using the low (25 µM) concentration of ATP. […]
Property: Kd (µM)
Numbers only, in µM.

Entry under review: Nc1ncnc2c1ncn2[C@@H]1O[C@H](COP(=O)(O)OP(=O)(O)O)[C@@H](O)[C@H]1O [ADP] . Reported Kd?
228
